assay: Pharmacokinetic evaluation after intravenous or gavage administration in rats; type: in vivo, SD rats; conditions: SD, rat, plasma, iv, i.v group, 1 mg/kg
QUANTITY KIND: Tmax (min)

{"columns": ["COMPOUND", "QUANTITY KIND", "READOUT UNITS", "MEAS VALUE"],
 "data": [
  ["NC(=O)[C@@H]1C[C@@H](F)CN1Cc1ccc(OCc2cccc(F)c2)cc1 [Example 12]", "Tmax", "min", 4.98],
  ["NC(=O)[C@@H]1C[C@H](F)CN1Cc1ccc(OCc2cccc(F)c2)cc1F [Example 3]", "Tmax", "min", 4.98],
  ["NC(=O)[C@@H]1C[C@H](F)CN1Cc1ccc(OCc2cccc(F)c2)cc1 [Example 1]", "Tmax", "min", 4.98]
]}
